# test description: reducers of endogenous Her2 protein level, primary screen, SKBR3 breast tumor cells, AlphaScreen, ATP viability (AID 461);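 note: percent of carrier control wells set as 100% viability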
# assay conditions: 18-24 h, measured here: SKBR3 viability, ATP luminescence, at 10 µM
I'd appreciate it if you could supply viability values for the items below.
Write the answer as a number in %, unit excluded.

Lookup: Need viability, item Cc1cc(C)c2c(N)c(C(=O)N3CCN(c4ncccn4)CC3)sc2n1
Found: 104

Lookup: Ok, now OCc1nc2ccccc2n1CC(O)Cn1ccc2ccccc21 (stereo not given)
Found: 97.5

Lookup: Next entry: COCCCN(C(C)=O)c1nc(-c2ccccc2)cs1
Found: 91

Lookup: Then CCOC(=O)CC(=O)CSc1[nH]c(=O)cc(C)c1C#N ?
Found: 87.5

Lookup: Same thing, different compound: COc1ccc(CNc2nc(SCC(=O)NCc3ccco3)nc3ccccc23)cc1
Found: 80

Lookup: Then this compound: Nc1nnc(-c2cn(-c3ccccc3)nc2-c2ccccc2)o1
Found: 73

Lookup: Next entry: COCCCNC(=O)c1ccc2c(c1)OCO2
Found: 96.5

Lookup: Also, Cc1nnc(C)c2c(C)n(-c3ccc(Br)cc3)c(C)c12 please.
Found: 110

Lookup: Record: CN(C)C(CN1C(=O)C2CC=CCC2C1=O)c1cn(C)c2ccccc12 (stereo not given)
Found: 104

Lookup: Try this compound next: COc1ccc(C)cc1NS(=O)(=O)c1ccc(NS(=O)(=O)c2ccc(NC(C)=O)cc2)cc1
Found: 128
